Value source: PubChem BioAssay (NCATS)

system: CP335; test: qHTS profiling for inhibitors of Plasmodium falciparum proliferation (AID 504749); note: nearly all actives have a fitted effect of over 60% in size; conditions: P. falciparum in erythrocytes, SYBR Green DNA, 72 h; series mostly up to 28.7 µM
Inconclusive results are not listed. Calls of active or inactive are those of the source. Calls come from the whole dose curve; as a rule, active = well fitted inhibition curve with a large enough effect; inconclusive = small, poorly fitted or top-dose-only effect; inactive = flat fitted curve, though single readings scatter. Numbered stars: 1 amine (or outer) side, 2 acyl side, 3 side chain; on linkers, the order of the positions; unused ones are H or OH. Bridge positions count the residues as written; N and C are the ends. Square brackets hold non-standard residues; d marks the D form. Peptide text beside a SMILES is read from it. * marks the point of attachment. ξ: configuration not given here. ΔAla(Z-3-ureido) = NC(=O)N/C=C(\N)C(=O)O; X2 = NC1=NC(O)CC(C(N[*:1])C(=O)[*:2])N1; X1 = NC1=NCCC(C(N[*:1])C(=O)[*:2])N1; ξβ3hOrn = NCCCC(N)CC(=O)*; Dap = NC[CH](N)C(=O)O
readout: outcome

>>> reported_measurement("NCCCC(N)CC(=O)NC1CNC(=O)C(C2CC(O)N=C(N)N2)NC(=O)/C(=C/NC(N)=O)NC(=O)C(CO)NC(=O)C(CO)NC1=O (stereo not drawn) (ξβ3hOrn-[Dap]SS[ΔAla(Z-3-ureido)][X2]; lactam 1-C; configuration not given here)")
"inactive"
>>> reported_measurement("NCCCC(N)CC(=O)NCC1NC(=O)C(CO)NC(=O)C(N)CNC(=O)C(C2CCN=C(N)N2)NC(=O)/C(=C/NC(N)=O)NC1=O (stereo not drawn) (H-[Dap]S[Dap](ξβ3hOrn)[ΔAla(Z-3-ureido)][X1]; lactam 1-C; configuration not given here)")
"inactive"
>>> reported_measurement("NC(=O)CCC1NC(=O)C(Cc2ccccc2)NC(=O)C(Cc2ccc(O)cc2)NC(=O)CCSSCC(C(=O)N2CCCC2C(=O)NC(CCCN=C(N)N)C(=O)NCC(N)=O)NC(=O)C(CC(N)=O)NC1=O (stereo not drawn)")
"inactive"
